tested on: M17-SYNwt cells; experiment: α-synuclein cytotoxicity assay (LDH leakage from paraquat-treated cells); format: cell-based, human; conditions: Homo sapiens; inhibition of synuclein cytotoxicity, paraquat-treated M17-SYNwt cells, 10 point curves in duplicate
So basically: is EC50 under 0.4 µg/mL? Then y. Not under? Then n.

Example entries and their recorded answers appear below.
1. O=S(=O)(c1ccc2ccccc2c1)N1CCN(c2nc(Cc3ccc(Cl)cc3)ns2)CC1 | y
2. COc1ccc(S(=O)(=O)N2CCN(c3nc(Cc4cccc(OC)c4)ns3)CC2)cc1 | y
3. Cc1ccccc1NC(=O)N1CCN(c2nc(Cc3ccc(F)cc3)ns2)CC1C (centres unmarked) | n

Report whether reported EC50 is lower than 0.4 µg/mL (strictly) for CC1CN(c2nc(Cc3ccc(F)cc3)ns2)CCN1C(=O)c1cccc(Br)c1 (centres unmarked)
n

Is it true that EC50 reported for CC1CN(c2nc(Cc3ccc(F)cc3)ns2)CCN1S(=O)(=O)c1cccc(C(F)(F)F)c1 (centres unmarked) is less than 0.4 µg/mL?
n

Below 0.4 µg/mL on EC50? Entry CCCCCCc1ccc(C(=O)NCCN2CCN(c3nc(Cc4ccc(F)cc4)ns3)CC2)cc1
n

Lab log: compare recorded EC50 with 0.4 µg/mL; is it strictly lower for Cc1ccc(Cc2nsc(N3CCN(S(=O)(=O)c4cc(Cl)ccc4Cl)C(C)C3)n2)cc1 (centres unmarked) ?
y

----------
Tested on: M17-SYNwt cells
Experiment: α-synuclein cytotoxicity assay (LDH leakage from paraquat-treated cells)
Assay type: cell-based, human
Conditions: Homo sapiens; inhibition of synuclein cytotoxicity, paraquat-treated M17-SYNwt cells, 10 point curves in duplicate
Method: 1,2,4-thiadazole compounds made according to the methods described herein were screened for activity using the α-synuclein cytotoxicity assay as described above. Dose responses were carried out on all compounds found to be active (10 point curves in duplicate).
EC50 strictly less than 0.3 µg/mL = condition met. Otherwise condition not met.

1. Cc1cccc(C)c1NC(=O)N1CCN(c2nc(Cc3ccc(F)cc3)ns2)CC1C (centres unmarked) | condition met

I wonder whether COc1ccc(S(=O)(=O)N2CCN(c3nc(Cc4ccc(F)c(C)c4)ns3)CC2)cc1 has EC50 below 0.3 µg/mL. Can you tell?
condition met

For this compound, is EC50 lower than 0.3 µg/mL? CC1CN(c2nc(Cc3ccc(F)cc3)ns2)CCN1C(=O)CCc1ccccc1 (centres unmarked)
condition not met

Hello, I'm reviewing records and need to know if EC50 of O=S(=O)(c1ccc(O)cc1)N1CCN(c2nc(Cc3ccc(F)cc3)ns2)CC1 is below 0.3 µg/mL. Could you check?
condition met

Data origin, for the record: patent US8541406B2
